Target: PI3Kα (Homo sapiens (Human), UniProt P42336)
Sequence (P42336 whole entry): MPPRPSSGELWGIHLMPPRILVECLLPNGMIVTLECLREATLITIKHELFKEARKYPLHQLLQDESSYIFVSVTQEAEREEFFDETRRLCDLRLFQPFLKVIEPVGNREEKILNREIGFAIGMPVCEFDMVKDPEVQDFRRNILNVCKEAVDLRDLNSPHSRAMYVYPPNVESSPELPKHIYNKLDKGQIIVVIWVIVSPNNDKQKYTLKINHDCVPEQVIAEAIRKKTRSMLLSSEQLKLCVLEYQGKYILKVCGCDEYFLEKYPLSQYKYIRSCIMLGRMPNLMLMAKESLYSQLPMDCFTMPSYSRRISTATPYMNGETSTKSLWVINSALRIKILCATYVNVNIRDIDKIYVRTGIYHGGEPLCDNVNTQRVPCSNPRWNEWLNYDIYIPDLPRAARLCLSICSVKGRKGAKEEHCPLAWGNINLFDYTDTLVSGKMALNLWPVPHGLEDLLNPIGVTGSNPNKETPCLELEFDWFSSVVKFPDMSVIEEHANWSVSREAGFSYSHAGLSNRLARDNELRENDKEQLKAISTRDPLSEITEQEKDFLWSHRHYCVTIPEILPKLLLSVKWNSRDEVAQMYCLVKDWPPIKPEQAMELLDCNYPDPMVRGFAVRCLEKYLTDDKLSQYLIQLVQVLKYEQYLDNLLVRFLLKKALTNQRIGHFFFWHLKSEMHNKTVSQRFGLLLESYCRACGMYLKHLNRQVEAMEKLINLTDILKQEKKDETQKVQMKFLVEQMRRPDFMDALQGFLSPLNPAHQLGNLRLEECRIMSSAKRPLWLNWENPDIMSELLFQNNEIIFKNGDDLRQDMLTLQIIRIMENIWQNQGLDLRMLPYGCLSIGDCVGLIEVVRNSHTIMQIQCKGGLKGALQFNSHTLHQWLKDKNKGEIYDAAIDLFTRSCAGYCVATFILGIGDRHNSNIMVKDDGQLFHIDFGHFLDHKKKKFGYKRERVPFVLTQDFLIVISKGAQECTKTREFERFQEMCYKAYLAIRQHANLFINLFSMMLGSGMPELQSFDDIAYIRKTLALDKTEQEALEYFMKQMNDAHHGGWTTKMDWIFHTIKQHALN
Sequence (P27986 whole entry partner): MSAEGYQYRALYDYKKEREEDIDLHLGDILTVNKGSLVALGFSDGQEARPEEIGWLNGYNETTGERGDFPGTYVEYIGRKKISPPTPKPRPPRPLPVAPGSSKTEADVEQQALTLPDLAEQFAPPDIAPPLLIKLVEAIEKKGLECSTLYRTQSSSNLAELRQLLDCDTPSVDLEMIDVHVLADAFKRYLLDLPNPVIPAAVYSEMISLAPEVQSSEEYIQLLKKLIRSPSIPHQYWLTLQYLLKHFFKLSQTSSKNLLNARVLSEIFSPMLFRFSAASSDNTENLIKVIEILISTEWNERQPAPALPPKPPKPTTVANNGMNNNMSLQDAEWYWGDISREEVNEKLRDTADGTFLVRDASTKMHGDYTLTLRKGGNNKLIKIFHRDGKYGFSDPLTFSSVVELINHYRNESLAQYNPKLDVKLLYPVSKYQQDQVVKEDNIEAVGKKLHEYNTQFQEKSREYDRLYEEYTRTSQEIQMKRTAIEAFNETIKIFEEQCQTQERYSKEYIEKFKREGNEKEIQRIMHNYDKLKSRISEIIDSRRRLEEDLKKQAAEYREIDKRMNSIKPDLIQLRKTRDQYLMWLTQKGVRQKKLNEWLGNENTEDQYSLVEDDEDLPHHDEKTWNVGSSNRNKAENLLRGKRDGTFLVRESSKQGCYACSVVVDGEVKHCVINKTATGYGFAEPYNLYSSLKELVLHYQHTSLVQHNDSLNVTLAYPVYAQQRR
Conditions: read-out: PI3Kα AlphaScreen ® Ki
pKi: −log10 of the molar value.
Use Yes when the recorded pKi is no lower than 8; use No when it is lower.

COMPOUND: Cc1nc(N)cc(-c2cccnc2Nc2cnc(Cl)c(NS(C)(=O)=O)c2)n1 [Example 304]
CLASS_NAME: No
--
COMPOUND: CC(=O)Nc1ccc(Nc2ncccc2-c2nc(C)nc3[nH]cnc23)cc1Cl [Example 181]
CLASS_NAME: No
--
COMPOUND: COc1ccc(Nc2ncc(N3CC[C@@H](O)C3)cc2-c2nc(C)nc3[nH]cnc23)cn1 [Example 206]
CLASS_NAME: No
--
COMPOUND: COc1ncc(Nc2ncc([C@H](C)N3CCN(S(C)(=O)=O)C[C@@H]3C)cc2-c2nc(C)nc3[nH]cnc23)cc1F [Example 296]
CLASS_NAME: No
--
COMPOUND: COc1ccc(Nc2ncccc2-c2nc(C)nc(N)n2)cc1OC [Example 170]
CLASS_NAME: No
--
COMPOUND: COc1cc(Nc2ncc(C(C)(C)O)cc2-c2nc(C)nc(N)n2)cnc1Cl [Example 342]
CLASS_NAME: No
--
COMPOUND: Cc1nc(N)nc(-c2cc(CN3CCN(S(C)(=O)=O)CC3)cnc2Nc2cn[nH]c2)n1 [Example 243]
CLASS_NAME: No
--
COMPOUND: CC(=O)Nc1ccc(Nc2ncc(CN3CCN(S(C)(=O)=O)CC3)cc2-c2nc(C)nc(N)n2)cn1 [Example 196]
CLASS_NAME: No
--
COMPOUND: Cc1nc(N)nc(-c2cc(CN3CCN(S(C)(=O)=O)CC3)cnc2Nc2cccc3[nH]ncc23)n1 [Example 36]
CLASS_NAME: Yes
--
COMPOUND: COCCNc1cnc(Nc2ccc(OC)nc2)c(-c2nc(C)nc3[nH]cnc23)c1 [Example 93]
CLASS_NAME: No
--
COMPOUND: COc1ccc(Nc2ncc(CNc3ccccn3)cc2-c2nc(C)nc3[nH]cnc23)cn1 [Example 82]
CLASS_NAME: No
--
COMPOUND: COC(=O)N1CCN(Cc2cnc(Nc3ccc(OC)nc3)c(-c3nc(C)nc4[nH]cnc34)c2)CC1 [Example 86]
CLASS_NAME: No
--
COMPOUND: COc1cnc(Nc2cnc(Cl)c(N)c2)c(-c2nc(C)nc(N)n2)c1 [Example 368]
CLASS_NAME: No
--
COMPOUND: COc1ccc(CNc2cnc(Nc3ccc(OC)nc3)c(-c3nc(C)nc4[nH]cnc34)c2)cc1 [Example 95]
CLASS_NAME: No
--
COMPOUND: COc1ccc(Nc2ncc(CN3CCSCC3)cc2-c2nc(C)nc(N)n2)cn1 [Example 201]
CLASS_NAME: No
--
COMPOUND: Cc1nc(N)cc(-c2cccnc2Nc2cnc(Cl)c(NS(=O)(=O)N(C)C)c2)n1 [Example 375]
CLASS_NAME: No
--
COMPOUND: COc1ccc(Nc2ncccc2-c2nc(C)nc(N)n2)cc1F [Example 166]
CLASS_NAME: No
--
COMPOUND: COc1ccc(Nc2ncc(C(O)c3ccc(S(C)(=O)=O)cc3)cc2-c2nc(C)nc3[nH]cnc23)cn1 (centres unmarked) [Example 139]
CLASS_NAME: Yes
--
COMPOUND: COc1ncc(Nc2ncc(Cc3ccc(S(C)(=O)=O)cc3)cc2-c2nc(C)nc(N)n2)cc1F [Example 142]
CLASS_NAME: Yes
--
COMPOUND: Cc1nc(N)nc(-c2cc(F)cnc2Nc2cncc(F)c2)n1 [Example 186]
CLASS_NAME: No
--
COMPOUND: COc1ncc(Nc2ncc(C3CCOCC3)cc2-c2nc(C)nc(N)n2)cc1F [Example 344]
CLASS_NAME: Yes
--
COMPOUND: Nc1cc(-c2cccnc2Nc2cccc3[nH]ncc23)nc(C(F)(F)F)n1 [Example 21]
CLASS_NAME: No
--
COMPOUND: COc1ncc(Nc2ncc(C(O)C(C)(C)O)cc2-c2nc(C)nc(N)n2)cc1F (centres unmarked) [Example 347]
CLASS_NAME: No
--
COMPOUND: COc1ccc(Nc2ncc(C(C)N3CC(S(C)(=O)=O)C3)cc2-c2nc(C)nc(N)n2)cn1 (centres unmarked) [Example 308, 2,2,2-trifluoroacetate]
CLASS_NAME: No
--
COMPOUND: COc1ncc(Nc2nc(COCC(F)(F)F)ccc2-c2nc(C)nc(N)n2)cc1F [Example 199]
CLASS_NAME: No
--
COMPOUND: Cc1nc(N)nc(-c2cc([C@@H](C)N3CCN(S(C)(=O)=O)CC3)cnc2Nc2ccc3cccnc3c2)n1 [Example 310, 2,2,2-trifluoroacetate]
CLASS_NAME: No
--
COMPOUND: Cc1nc(N)nc(-c2cc(CN3CCN(S(C)(=O)=O)CC3)cnc2Nc2ccc3ncoc3c2)n1 [Example 39]
CLASS_NAME: No
--
COMPOUND: COc1ncc(Nc2ncc([C@@H](C)N3CCN(S(C)(=O)=O)C[C@@H]3C)cc2-c2nc(C)nc3[nH]cnc23)cc1F [Example 295]
CLASS_NAME: Yes
